# testedSystem: human GLP-1 receptor (human, UniProt P43220 24-463)
# testMethodNotes: cell-based or functional assay
Where no end group is shown, it is not given here. [ ]: non-standard residue; d: D form. αMePhe(2-F) = C[C@](N)(Cc1ccccc1F)C(=O)O; αMeBip(OMe) = alpha-methylated Bip(OMe); hhPhe = N[C@@H](CCCc1ccccc1)C(=O)O; αMeD = C[C@](N)(CC(=O)O)C(=O)O; αMeP = C[C@@]1(C(=O)O)CCCN1; αMeAPPA = not defined here; αMeS = C[C@](N)(CO)C(=O)O; Aib = CC(C)(N)C(=O)O
# key: entry, value: cAMP release, % activity with respect to control, at 100 nM

binder="VH[αMeP]EGTFTSD[αMeBip(OMe)][hhPhe] (not fully specified (C-terminus); printed as VH-(αMe-Pro)-EGTFTSD-(αMe-Bip(OMe))-(APPA)) [Seq. ID. No. 14]" result="93 % of control"
binder="VH[Aib]EGTFTSD[αMeBip(OMe)][αMeAPPA] (not fully specified (C-terminus); printed as VH-Aib-EGTFTSD-(αMe-Bip(OMe))-(αMe-APPA); reading uncertain) [Seq. ID. No. 139]" result="93 % of control"
binder="VHSEGT[αMePhe(2-F)]TSD[αMeBip(OMe)][αMeAPPA] (not fully specified (C-terminus); printed as VHSEGT-(αMe-2FPhe)-TSD-(αMe-Bip(OMe))-(αMe-APPA); reading uncertain) [Seq. ID. No. 145]" result="99 % of control"

Ask | Query (binder): VH[Aib]QGTFTS[αMeD][αMeBip(OMe)][hhPhe]-NH2 [Seq. ID. No. 59] ; field requested: cAMP release, % activity with respect to control, at 100 nM
Reply | 88 % of control

Ask | Query (binder): VH[αMeP]EGT[αMePhe(2-F)]T[αMeS]D[αMeBip(OMe)][αMeAPPA] (not fully specified (C-terminus); reading uncertain) [Seq. ID. No. 172] ; field requested: cAMP release, % activity with respect to control, at 100 nM
Reply | 98 % of control
